src = patent US20160264649A1

Recorded log10(IC50 (neutralization)) values for a group of binders are listed next.
# ASSAY TARGET: HIV-1 Env of isolate 98CN009 (subtype CRF07_BC) (HIV-1)
# PROTOCOL DESCRIPTION: cell-based or functional assay
VALUE KIND: log10(IC50 (neutralization)) (log10 of the value in µg/mL)

BINDER	VALUE KIND	VALUE REPORTED
PGT-128 (antibody, V domains shown) VH: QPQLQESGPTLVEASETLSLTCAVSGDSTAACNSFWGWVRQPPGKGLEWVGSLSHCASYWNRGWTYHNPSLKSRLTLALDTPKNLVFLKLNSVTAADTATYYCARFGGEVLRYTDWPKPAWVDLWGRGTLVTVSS VL: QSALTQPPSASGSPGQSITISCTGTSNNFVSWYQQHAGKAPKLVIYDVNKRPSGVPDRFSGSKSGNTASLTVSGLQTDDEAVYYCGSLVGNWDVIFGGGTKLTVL	log10(IC50 (neutralization))	-1.60
PGT-136 (antibody, V domains shown) VH: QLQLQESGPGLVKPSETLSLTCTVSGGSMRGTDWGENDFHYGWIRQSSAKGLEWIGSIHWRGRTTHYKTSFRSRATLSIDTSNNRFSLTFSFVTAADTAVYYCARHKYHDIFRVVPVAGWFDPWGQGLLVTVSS VL: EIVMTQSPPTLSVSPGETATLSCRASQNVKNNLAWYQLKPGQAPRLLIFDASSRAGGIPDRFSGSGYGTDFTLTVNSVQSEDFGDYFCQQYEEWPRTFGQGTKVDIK	log10(IC50 (neutralization))	-0.37
PGT-123 (antibody, V domains shown) VH: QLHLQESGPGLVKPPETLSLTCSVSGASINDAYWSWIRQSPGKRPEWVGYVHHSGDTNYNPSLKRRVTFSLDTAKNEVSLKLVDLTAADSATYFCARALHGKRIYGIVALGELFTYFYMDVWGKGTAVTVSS VL: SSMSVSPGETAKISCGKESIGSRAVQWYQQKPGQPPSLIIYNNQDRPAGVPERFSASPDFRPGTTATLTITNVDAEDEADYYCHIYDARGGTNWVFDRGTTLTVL	log10(IC50 (neutralization))	-2.15
PGT-137 (antibody, V domains shown) VH: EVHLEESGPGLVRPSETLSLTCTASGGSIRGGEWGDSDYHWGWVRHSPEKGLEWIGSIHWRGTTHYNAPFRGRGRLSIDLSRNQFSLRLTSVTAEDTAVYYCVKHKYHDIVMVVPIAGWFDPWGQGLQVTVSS VL: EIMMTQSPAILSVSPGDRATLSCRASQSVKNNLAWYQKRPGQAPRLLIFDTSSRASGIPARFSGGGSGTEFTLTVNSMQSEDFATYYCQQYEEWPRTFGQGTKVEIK	log10(IC50 (neutralization))	0.70
PGT-127 (antibody, V domains shown) VH: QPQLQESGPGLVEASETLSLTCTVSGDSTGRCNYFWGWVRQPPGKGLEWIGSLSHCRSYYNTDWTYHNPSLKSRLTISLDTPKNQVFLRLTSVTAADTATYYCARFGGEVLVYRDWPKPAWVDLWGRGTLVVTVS VL: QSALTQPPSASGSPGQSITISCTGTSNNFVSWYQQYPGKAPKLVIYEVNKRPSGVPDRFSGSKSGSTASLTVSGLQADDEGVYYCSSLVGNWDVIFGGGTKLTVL	log10(IC50 (neutralization))	-1.05
